Value source: patent US20220117993A1

# Test system: PSV with methionine 184 to valine (M184V) substitution in the reverse transcriptase gene
# Assay remarks: microbe, parasite or virus in culture
# Assay type: cell-based, HIV
# Run parameters: Human immunodeficiency virus 1, 72 h, read-out: M184V IC50
Doc: threshold 30 nM (exclusive). Items with IC50 beneath it return label 1; others return label 0.

Observe how each entry below is paired with its result.
>  <Compound structure>
C#C[C@]1(CO)O[C@@H](n2cnc3c(NC(=O)CCCCCCCCCCCCC)nc(F)nc32)C[C@@H]1OC(C)=O

>  <Classification>
label 0

$$$$
>  <Compound structure>
C#C[C@]1(CO)O[C@@H](n2cnc3c(N)nc(F)nc32)C[C@@H]1OC(=O)Cc1ccccc1

>  <Classification>
label 1

$$$$
>  <Compound structure>
C#C[C@]1(CO)O[C@@H](n2cnc3c(N)nc(F)nc32)C[C@@H]1OC(=O)CCCCCCC/C=C\C/C=C\C/C=C\CC

>  <Classification>
label 0

$$$$
>  <Compound structure>
C#C[C@]1(CO)O[C@@H](n2cnc3c(N)nc(F)nc32)C[C@@H]1OC(=O)[C@H]1CC[C@H](C(C)(C)C)CC1

>  <Classification>
label 1

$$$$
>  <Compound structure>
C#C[C@]1(CO)O[C@@H](n2cnc3c(N)nc(F)nc32)C[C@@H]1OC(=O)C(C)(C)CCC

>  <Classification>
label 0

$$$$

(Q) Does this compound meet the criterion IC50 < 30 nM? C#C[C@]1(CO)O[C@@H](n2cnc3c(N)nc(F)nc32)C[C@@H]1OC(=O)[C@H]1CC[C@H](CCCCC)CC1
(A) label 1

(Q) Does this compound meet the criterion IC50 < 30 nM? C#C[C@]1(CO)O[C@@H](n2cnc3c(N)nc(F)nc32)C[C@@H]1OC(=O)CCCCCCCCC
(A) label 1

----------
# Tested on: PSV with methionine 184 to valine (M184V) substitution in the reverse transcriptase gene
# Assay remarks: microbe, parasite or virus in culture
# Assay type: cell-based, HIV
# Run parameters: Human immunodeficiency virus 1, 72 h, read-out: M184V IC50
Measurement label: IC50
Record the result as number plus unit.

>  <Compound>
C#C[C@]1(CO)O[C@@H](n2cnc3c(N)nc(F)nc32)C[C@@H]1OC(=O)C(CCCCCC)CCCCCCCC (stereo partly shown)

>  <IC50>
3.12 µM

$$$$
>  <Compound>
C#C[C@]1(COC(=O)OCC)O[C@@H](n2cnc3c(N)nc(F)nc32)C[C@@H]1OC(=O)CCCCCCCCC

>  <IC50>
0.053 µM

$$$$
>  <Compound>
C#C[C@]1(COC(=O)OCCCCCC)O[C@@H](n2cnc3c(N)nc(F)nc32)C[C@@H]1OC(=O)CCCCCCCCCCCCC

>  <IC50>
1.13 µM

$$$$
>  <Compound>
C#C[C@]1(CO)O[C@@H](n2cnc3c(N)nc(F)nc32)C[C@@H]1OC(=O)C(C)CCCCC (stereo partly shown)

>  <IC50>
0.017 µM

$$$$
>  <Compound>
C#C[C@]1(CO)O[C@@H](n2cnc3c(NC(=O)CCC)nc(F)nc32)C[C@@H]1OC(=O)CCC

>  <IC50>
0.465 µM

$$$$

Please give IC50 for each item listed below.
1. C#C[C@]1(CO)O[C@@H](n2cnc3c(N)nc(F)nc32)C[C@@H]1OC(=O)CCC
2. C#C[C@]1(CO)O[C@@H](n2cnc3c(N)nc(F)nc32)C[C@@H]1OC(=O)CCCCCC

(A)
["0.123 µM", "0.024 µM"]
